- Test system: NCI-H23 lung
- ASSAY PROCEDURE: NCI tumour cell line growth inhibition, 48 h
Where a SMILES comes first, the peptide text is derived from it.
Some compounds, each annotated with its measured GI50.

O=c1cc(/C=C/c2ccc(O)c(O)c2)cc(/C=C/c2ccc(O)c(O)c2)o1    3.49 µM
COC(=O)[C@]12CC[C@@H](C)[C@H](C)[C@@H]1C1=CC[C@@H]3[C@@]4(C)C[C@@H](OC(C)=O)[C@H](O)[C@@](C)(CO)[C@@H]4[C@H](O)C[C@@]3(C)[C@]1(C)CC2    13.6 µM
COc1ccc(/C=C(/C(=O)N2CCCCC2)c2cc(OC)c(OC)c(OC)c2)cc1    3.88 µM

Moving on to the next compound.
Prompt line: Give the measured GI50 for CCC(C)C1NC(=O)C(CCCCN)NC(=O)C(CCCCN)NC(=O)C(CC(C)C)NC(=O)C(CCCCN)NC(=O)C(C(C)CC)NC(=O)C(C(C)C)NC(=O)C(C(C)CC)NC(=O)C(CCCCN)NC(=O)C(CCCCN)NC(=O)C(C)NC(=O)C(CCCCN)NC(=O)C(CC(C)C)NC1=O (centres undefined) (cyclo(AKKIVIKLKKILK); configuration not given here)
Response line: 0.704 µM

###

- System: LOX IMVI melanoma
- ASSAY PROCEDURE: NCI tumour cell line growth inhibition, 48 h; in the data active = GI50 below about 0.43 µM; inactive = the rest
Where a SMILES comes first, the peptide text is derived from it.
Hello, when you answer, please use one of the following outcomes: active, inactive

O=c1cc(/C=C/c2ccc(O)c(O)c2)cc(/C=C/c2ccc(O)c(O)c2)o1    inactive
O=C1C=CC2(NN=C(c3ccccc3)N2c2ccccc2)c2cccc(O)c21 (stereo not given)    active
O=C(Nc1ccccc1C(=O)N/N=C(\c1ccccc1)c1ccccn1)c1ccccc1    inactive
Nc1c(C(=O)N/N=C/c2ccco2)cnn1-c1ccnc2c(C(F)(F)F)cccc12    inactive

Prompt line: State the result this test recorded for "O=C([CH-]C(=O)C(F)(F)F)c1ccccc1.O=C([CH-]C(=O)C(F)(F)F)c1ccccc1.[O]=[U+2]=[O]" .
Response line: inactive

Prompt line: State the result this test recorded for "COc1ccc(/C=C(/C(=O)N2CCCCC2)c2cc(OC)c(OC)c(OC)c2)cc1" .
Response line: inactive

Prompt line: State the result this test recorded for CCC(C)C1NC(=O)C(CCCCN)NC(=O)C(CCCCN)NC(=O)C(CC(C)C)NC(=O)C(CCCCN)NC(=O)C(C(C)CC)NC(=O)C(C(C)C)NC(=O)C(C(C)CC)NC(=O)C(CCCCN)NC(=O)C(CCCCN)NC(=O)C(C)NC(=O)C(CCCCN)NC(=O)C(CC(C)C)NC1=O (stereo not given) (cyclo(AKKIVIKLKKILK); configuration not given here) .
Response line: inactive

Prompt line: State the result this test recorded for COc1ccc(C(O)c2cc3c(N)c(C(=O)Nc4ccccc4)sc3nc2C)cc1 (stereo not given) .
Response line: active

Prompt line: State the result this test recorded for "CCCCCCCC/C(=C\C1=C(C)C(=O)C(OC)=C(OC)C1=O)C(=O)O" .
Response line: inactive

Prompt line: State the result this test recorded for "C#CC#CC#CC#CC#CC#CC#CC#CC[C@@H]1OC[C@H](COC(=O)O[C@@H](C(=O)O[C@H]2C[C@@]3(O)[C@@H](OC(=O)c4ccccc4)[C@@H]4[C@]5(OC(C)=O)CO[C@@H]5C[C@H](O)[C@@]4(C)C(=O)[C@H](OC(C)=O)C(=C2C)C3(C)C)[C@@H](NC(=O)c2ccccc2)c2ccccc2)O1" .
Response line: inactive

###

Some compounds, each annotated with its measured TGI.
- Test system: LOX IMVI melanoma
- ASSAY PROCEDURE: NCI tumour cell line growth inhibition, 48 h

Examples from the recorded data:
O=C(Nc1cccc([N+](=O)[O-])c1)/C(=N\NC(=O)c1ccncc1)c1nc2ccc([N+](=O)[O-])cc2[nH]c1=O    > 100 µM
CCOP(=O)(OCC)C(C)(CC)NC1=NC(C(F)(F)F)(C(F)(F)F)NC(=O)N1 (stereo not drawn)    > 100 µM
N#CC(NCCc1ccccc1)c1ccc(C(C#N)NCCc2ccccc2)cc1 (stereo not drawn)    > 100 µM
O=C(O)C(CCc1ccccc1)N1C(=O)c2ccccc2C1=O (stereo not drawn)    > 100 µM
c1ccc2c(c1)N[C@@H]1c3[nH]c4ccccc4c3CC[C@H]21    29.5 µM

Prompt line: Give the measured TGI for "CN/N=C(/C=C/c1ccccc1)C(C)C"
Response line: > 100 µM

Prompt line: Give the measured TGI for "CC(C)(C(=O)NCC(F)(F)C(F)(F)F)C(=O)N[C@@H]1C(=O)Nc2ccccc2-c2ccccc21"
Response line: > 100 µM

Prompt line: Give the measured TGI for CCCCCCCC/C=C/CCCCCCCC(=O)N(O)C1CC(n2cc(C)c(=O)[nH]c2=O)OC1CO (stereo not drawn)
Response line: 17.3 µM

Prompt line: Give the measured TGI for "CC(=O)OCc1cc(=O)n2c([nH]c3ccccc32)c1C#N"
Response line: > 100 µM

Prompt line: Give the measured TGI for "CCNCCNc1cc(-c2ccc(Cl)c(Cl)c2)c(C#N)c2nc3ccccc3n12"
Response line: 2.53 µM

Prompt line: Give the measured TGI for "O=c1cc(-c2ccccc2)[nH]c2ccc(N3CCCC3)cc12"
Response line: > 100 µM

Prompt line: Give the measured TGI for "CO/C(=N\N=C\c1ccccc1F)c1ccncc1"
Response line: > 10 µM

Prompt line: Give the measured TGI for O=C(Nc1ccccc1SC(/C=C/NNC1=NC(c2ccccc2)C(c2ccccc2)=NN1)c1ccccc1)c1ccc(Cl)cc1Cl (stereo not drawn)
Response line: > 100 µM

Prompt line: Give the measured TGI for "[N-]=[N+]=Nc1ncnc2c1sc(=S)n2-c1ccccc1"
Response line: > 100 µM

Prompt line: Give the measured TGI for "CC[O-].CC[O-].CN(C)c1ccc([O-])cc1.CN(C)c1ccc([O-])cc1.[Ti+4]"
Response line: > 100 µM

###

- Test system: SN12C renal
- ASSAY PROCEDURE: NCI tumour cell line growth inhibition, 48 h
READOUT LABEL: TGI

Examples from the recorded data:
CC(C)(C)OC(=O)N(CCCN)CCCCN    > 100 µM
COc1ccc(N)c(C(=O)CCNC(C)=O)c1    > 100 µM
Cc1cccc(-n2cnc3cc(C(=O)N4CCCCC4)ccc32)c1    > 100 µM
CC(C)C(NCc1c2ccccc2[n+]([O-])c2ccccc12)C(=O)O (stereo not given)    > 100 µM

Prompt line: Give the measured TGI for "C=C(C)[C@@H]1CC[C@]2(C(N)=O)CC[C@]3(C)[C@H](CC[C@@H]4[C@@]5(C)C/C(=C/c6cccnc6)C(=O)C(C)(C)[C@@H]5CC[C@]43C)[C@@H]12"
Response line: > 100 µM

Prompt line: Give the measured TGI for CCOC(=O)/C=C/C1OC(C)(C)OC1/C=C/C(=O)OCC (stereo not given)
Response line: > 100 µM

Prompt line: Give the measured TGI for "O=[N+]([O-])/C(C(Cl)=C(Cl)Cl)=C(\Nc1cccc2ccccc12)n1nnc2ccccc21"
Response line: > 100 µM

Prompt line: Give the measured TGI for CCOP(=O)(OCC)C(C)(CC)NC1=NC(C(F)(F)F)(C(F)(F)F)NC(=O)N1 (stereo not given)
Response line: > 100 µM

###

- System: HOP-62 NSCLC
- ASSAY PROCEDURE: NCI tumour cell line growth inhibition, 48 h; in the data active = GI50 below about 0.43 µM; inactive = the rest
Hello, when you answer, please use one of the following outcomes: true (active), false (inactive)

O=C1NC(=NCc2c(Cl)cccc2Cl)S/C1=C\c1ccc2ncccc2c1    false
CC[O-].CC[O-].CN(C)c1ccc([O-])cc1.CN(C)c1ccc([O-])cc1.[Ti+4]    false
CCCCCN1C(=O)/C(=c2\sc3n(c2=O)C2C(NN=3)N(CC)C(=O)N2CC)c2ccccc21 (stereo unspecified)    false

Prompt line: State the result this test recorded for "CCCCCC[n+]1noc(N)c1-c1ccc(-c2c(N)on[n+]2CCCCCC)cc1" .
Response line: false

Prompt line: State the result this test recorded for "O=c1[nH]nc(-c2nn(-c3ccc(Cl)cc3)cc2O)o1" .
Response line: true

Prompt line: State the result this test recorded for "O=S(=O)(Nc1cc(F)cc(F)c1)c1ccc(-c2cnc(C3CC3)o2)cc1" .
Response line: false

Prompt line: State the result this test recorded for "CCNCCNc1cc(-c2ccc(Cl)c(Cl)c2)c(C#N)c2nc3ccccc3n12" .
Response line: false

Prompt line: State the result this test recorded for "C#CCNCCCN1C(=O)c2ccc3c4c(ccc(c24)C1=O)C(=O)N(CCCNCC#C)C3=O" .
Response line: true

Prompt line: State the result this test recorded for "COC(=O)[C@]12CC[C@@H](C)[C@H](C)[C@@H]1C1=CC[C@@H]3[C@@]4(C)C[C@@H](OC(C)=O)[C@H](O)[C@@](C)(CO)[C@@H]4[C@H](O)C[C@@]3(C)[C@]1(C)CC2" .
Response line: false

Prompt line: State the result this test recorded for "Cc1cccc(-n2cnc3cc(C(=O)N4CCCCC4)ccc32)c1" .
Response line: false

Prompt line: State the result this test recorded for "CCCCCCCCn1ccc2cc(NC(=O)Cn3cc(CN4CCN(CC)CC4)nn3)ccc21" .
Response line: false
